Give growth for every item shown.
Tested on: CAKI-1 renal
Experiment: NCI-60 one-dose screen, 48 h (100 = growth as untreated, 0 = no growth, -100 = all killed)
Details: 10 µM unless noted
Method: Growth inhibition of the CAKI-1 human tumor cell line is measured as a screen for anti-cancer activity. Cells are grown in 96 well plates and exposed to the test compound for 48 hours. Compounds are tested at a single concentration, which is 10^-5 M for most compounds. The reported endpoint is percent growth (GI% or GIPRCNT), where numbers from 0 - 100% represent growth inhibition, and numbers from -100% - 0 represent cell death. For example, a value of 40 represents 60% growth inhibition. […]
About 83,000 compounds went through this panel and 20% of them were active in at least one assay; those are over-represented in the sample as a whole.
Numbers only, in %.

A selection of reference data follows.
• COc1cc(CN(CCC(O)N2CCCC2=O)Cc2ccc3c(c2)OCO3)cc(OC)c1OC (configuration not stated) = 97.1
• C[N+](C)(C)CC(=O)N/N=C\c1ccco1 = 98

Each molecule below has a recorded value; state its growth.
1. NC(CCC(=O)NC(CS)C(=O)NCC(=O)O)C(=O)O (configuration not stated)
2. COc1cc(-c2nn(C(=O)NCCN3CCN(C)CC3)cc2-c2ccncc2)ccc1Cl
3. O=c1oc2ccccc2cc1-c1cc(-c2ccc(-c3cc(-c4cc5ccccc5oc4=O)nc(-c4cc5ccccc5oc4=O)c3)cc2)cc(-c2cc3ccccc3oc2=O)n1
4. O=C(/C=C/c1cn(-c2ccccc2)nc1-c1ccccc1)OCc1cn(-c2cccc([N+](=O)[O-])c2)nn1
5. Oc1ccccc1-c1nnc(COc2ccc(Cl)cc2Cl)o1

Marked response:
1. 100
2. 79.7
3. 105
4. 82.5
5. 41.5
